Test System: UniProt Q8WWT9
Assay Protocol: intrinsic tryptophan fluorescence quenching
Assay type: binding
Measured Metric: Kd
Value and unit, in that order.

-- ask Fill in the blank: the reported Kd of CC(C(=O)O)C(C)C(=O)O (stereo not shown) [DMS, 2,3-dimethylsuccinate] is ____.
-- reply 10.2 µM

###

Test System: NaDC3 (Homo sapiens)
Sequence (Q8WWT9 1-602): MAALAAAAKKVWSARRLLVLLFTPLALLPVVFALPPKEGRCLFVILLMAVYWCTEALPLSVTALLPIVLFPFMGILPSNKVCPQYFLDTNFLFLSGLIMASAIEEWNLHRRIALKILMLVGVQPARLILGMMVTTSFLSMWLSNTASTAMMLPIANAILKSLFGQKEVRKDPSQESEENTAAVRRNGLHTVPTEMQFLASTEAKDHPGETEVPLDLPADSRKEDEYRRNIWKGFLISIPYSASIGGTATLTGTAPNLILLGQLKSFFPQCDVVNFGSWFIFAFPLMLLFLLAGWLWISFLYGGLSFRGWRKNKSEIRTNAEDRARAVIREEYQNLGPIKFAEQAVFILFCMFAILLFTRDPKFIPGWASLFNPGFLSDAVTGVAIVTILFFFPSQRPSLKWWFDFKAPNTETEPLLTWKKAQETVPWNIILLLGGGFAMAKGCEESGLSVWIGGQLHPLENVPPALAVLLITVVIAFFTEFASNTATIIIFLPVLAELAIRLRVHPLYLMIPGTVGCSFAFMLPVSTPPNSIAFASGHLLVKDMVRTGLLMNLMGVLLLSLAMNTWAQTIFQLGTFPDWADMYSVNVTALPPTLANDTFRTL
Assay Protocol: cryo-EM structure
Measured Metric: pIC50
Hey, just a heads up that pIC50 is the negative log base 10 of the concentration in molar.

-- ask Fill in the blank: the reported pIC50 of COc1ncc(C)cc1CC[C@@](O)(CC(=O)O)C(=O)O is ____.
-- reply 4.41
